Tested on: Staphylococcus aureus
ASSAY_PROTOCOL: Antibacterial activity against Staphylococcus aureus MB2865 assessed as growth inhibition
Type: functional
// MIC lookup, one value per entry
Hi! Could you send only the number? It should be in µg/mL, unit omitted.

Some molecules with recorded MIC:
MOLECULE | UNIT_NAME | MIC
CC1(C)C2CCC(C2)C1CCC(CCC1C2CCC(C2)C1(C)C)NCCNCCNCCCN.Cl (stereo unspecified) | µg/mL | 6
CC1(C)C2CCC(C2)C1CCC(CCC1C2CCC(C2)C1(C)C)NCCN(CCN)CCN.Cl (stereo unspecified) | µg/mL | 8
Cl.NCCCNCCCNC(CCC1CCCC1)CCC1CCCC1 | µg/mL | 15
Cl.NCCNCCNCCNC(CCC1CCCCC1)CCC1CCCCC1 | µg/mL | 30
CC(C)c1ccc(CCCC(CCCc2ccc(C(C)C)cc2)NCCNCCNCCN)cc1.Cl | µg/mL | 20

-- ask So what does the record say about MIC for "Cl.NCCNCCNC(CCC1CCCCC1)CCC1CCCCC1" ?
-- reply 15

-- ask Also need "Cl.NCCCNCCCNC(CCCC1CCCCC1)CCCC1CCCCC1" , thanks.
-- reply 8

-- ask And the next one, CC1(C)C2CCC(C2)C1CCC(CCC1C2CCC(C2)C1(C)C)NCCCNCCCN.Cl (stereo unspecified) ?
-- reply 10

-- ask Same question for "Cl.NCCCNCCCNC(CCC1CCCCC1)CCC1CCCCC1" please.
-- reply 10

-- ask What about Cl.NCCCNCC(O)CNC(CCC1CCCCC1)CCC1CCCCC1 (stereo unspecified) ?
-- reply 15

-- ask Now give it for "CC(C)(C)c1ccc(CCCC(CCCc2ccc(C(C)(C)C)cc2)NCCCNCCCNCCCN)cc1.Cl" too.
-- reply 20

-- ask Query CC1(C)C2CCC(C2)C1CCC(CCC1C2CCC(C2)C1(C)C)NCCCN1CCN(CCCN)CC1.Cl (stereo unspecified) next
-- reply 20

-- ask Could you do the same for "Cl.NCCCNCCCNC(CC1CCCCC1)CC1CCCCC1" , please?
-- reply 40

-- ask Same lookup for "Cl.NCCNCCNCCNC(CCCC1CCCCC1)CCCC1CCCCC1" , please.
-- reply 15

-- ask Same thing, different molecule: CC1(C)C2CCC(C2)C1CCC(CCC1C2CCC(C2)C1(C)C)NCCNCCCNCCN.Cl (stereo unspecified)
-- reply 6

-- ask And CC1(C)C2CCC(C2)C1CCC(CCC1C2CCC(C2)C1(C)C)NCCNCCN.Cl (stereo unspecified) ?
-- reply 6
